- target or system: MtDTBS (Mycobacterium tuberculosis dethiobiotin synthetase) (Mycobacterium tuberculosis, UniProt P9WPQ5)
- Sequence (P9WPQ5 whole entry): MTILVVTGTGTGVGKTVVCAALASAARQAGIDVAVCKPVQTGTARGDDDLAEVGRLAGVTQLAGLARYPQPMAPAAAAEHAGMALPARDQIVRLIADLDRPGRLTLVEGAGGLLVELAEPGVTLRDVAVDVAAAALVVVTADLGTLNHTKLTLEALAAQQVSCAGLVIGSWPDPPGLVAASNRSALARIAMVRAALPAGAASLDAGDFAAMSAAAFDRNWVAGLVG
- measurement notes: biochemical
measurement label: Kd (µM)
Supply the numeric figure in µM, leaving out any unit text.

Answer with reported Kd of O=C1Oc2ccccc2C2(O)C3CCCC3C12 (stereo not shown) [compound 1]
580

Where do the numbers come from? From paper doi:10.1101/2023.03.26.531482v1.
